Numbers sourced from the kinase profiling compilation of Christmann-Franck et al. (2016).

TARGET OR SYSTEM: STK3 (human)
PROTOCOL SUMMARY: KINOMEscan competition binding
RUN PARAMETERS: compound 10.0 µM
METRIC NAME: kinase still bound, per cent of control (%)
Number in %, nothing else.

INSERT INTO results (molecule, metric_name, reading_unit, measurement) VALUES
  ('C=CC(=O)Nc1cc(NC(=O)c2ccc(C)c(NC(=O)c3ccno3)c2)cc(C(F)(F)F)c1', 'kinase still bound, per cent of control', '%', 100),
  ('CCOc1cc2ncc(C#N)c(Nc3ccc(OCc4ccccn4)c(Cl)c3)c2cc1NC(=O)/C=C/CN(C)C', 'kinase still bound, per cent of control', '%', 1.4),
  ('CN(C)C/C=C/C(=O)Nc1cccc(Nc2ncc3c(n2)N(C)c2ccccc2C(=O)N3C)c1', 'kinase still bound, per cent of control', '%', 0),
  ('COc1cc(C(=O)NC2CCN(C)CC2)ccc1Nc1ncc2c(n1)N(C1CCCC1)C(C)CC(=O)N2C (stereo unspecified)', 'kinase still bound, per cent of control', '%', 100),
  ('O=C(NOC[C@H](O)CO)c1ccc(F)c(F)c1Nc1ccc(I)cc1F', 'kinase still bound, per cent of control', '%', 90);

Let us move to another entry and its kinase still bound, per cent of control.
Q: Find kinase still bound, per cent of control (STK3 (human)) for the entry Cc1ccc2nc(NCCN)c3ncc(C)n3c2c1
A: 90

###

TARGET OR SYSTEM: UniProtKB O15264
Sequence (O15264 whole entry, looked up): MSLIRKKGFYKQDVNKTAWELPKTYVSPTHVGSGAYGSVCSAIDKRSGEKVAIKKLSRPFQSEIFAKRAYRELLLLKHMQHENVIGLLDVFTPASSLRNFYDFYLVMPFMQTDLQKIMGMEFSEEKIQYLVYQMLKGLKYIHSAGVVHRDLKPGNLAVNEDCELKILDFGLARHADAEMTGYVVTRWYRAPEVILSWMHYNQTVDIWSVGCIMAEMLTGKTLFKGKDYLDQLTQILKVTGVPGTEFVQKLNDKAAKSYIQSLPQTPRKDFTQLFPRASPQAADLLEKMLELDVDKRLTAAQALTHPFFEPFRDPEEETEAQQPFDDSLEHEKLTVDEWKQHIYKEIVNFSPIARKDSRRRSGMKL
PROTOCOL SUMMARY: KINOMEscan competition binding
RUN PARAMETERS: compound 10.0 µM
METRIC NAME: kinase still bound, per cent of control

The following compounds have reported results that may help.
INSERT INTO measurements (compound, metric_name, measurement) VALUES
  ('C=CC(=O)Nc1cccc(Nc2nc(N[C@H]3CC[C@H](N(C)C)CC3)nc3c2ncn3C(C)C)c1', 'kinase still bound, per cent of control', '94%'),
  ('C[C@@H](Oc1cc(-n2cnc3ccc(CN4CCN(C)CC4)cc32)sc1C(N)=O)c1ccccc1C(F)(F)F', 'kinase still bound, per cent of control', '100%'),
  ('CCC(=O)N1CCN(c2ccc(-n3c(=O)ccc4cnc5ccc(-c6cnc7ccccc7c6)cc5c43)cc2C(F)(F)F)CC1', 'kinase still bound, per cent of control', '39%'),
  ('Cc1cc([C@@H](C)Nc2ccccc2C(=O)O)c2nc(N3CCOCC3)cc(=O)n2c1', 'kinase still bound, per cent of control', '87%'),
  ('COc1cc(C(=O)NC2CCN(C)CC2)ccc1Nc1ncc2c(n1)N(C1CCCC1)C(C)CC(=O)N2C (centres undefined)', 'kinase still bound, per cent of control', '100%'),
  ('COc1cc(N2CCN(C)CC2)ccc1Nc1nc(N)c(C(=O)c2c(Cl)cccc2Cl)s1', 'kinase still bound, per cent of control', '63%');

Q: Find kinase still bound, per cent of control (UniProtKB O15264) for the entry OCCCNc1cc(-c2ccnc(Nc3cccc(Cl)c3)n2)ccn1
A: 100%

Q: Find kinase still bound, per cent of control (UniProtKB O15264) for the entry CCCS(=O)(=O)Nc1ccc(F)c(C(=O)c2c[nH]c3ncc(-c4ccc(Cl)cc4)cc23)c1F
A: 100%

Q: Find kinase still bound, per cent of control (UniProtKB O15264) for the entry Nc1ccc(-c2ccc3ncc4ccc(=O)n(-c5cccc(C(F)(F)F)c5)c4c3c2)cn1
A: 48%

###

TARGET OR SYSTEM: BMPR2 (human) (UniProt Q13873)
Sequence (Q13873 whole entry, looked up): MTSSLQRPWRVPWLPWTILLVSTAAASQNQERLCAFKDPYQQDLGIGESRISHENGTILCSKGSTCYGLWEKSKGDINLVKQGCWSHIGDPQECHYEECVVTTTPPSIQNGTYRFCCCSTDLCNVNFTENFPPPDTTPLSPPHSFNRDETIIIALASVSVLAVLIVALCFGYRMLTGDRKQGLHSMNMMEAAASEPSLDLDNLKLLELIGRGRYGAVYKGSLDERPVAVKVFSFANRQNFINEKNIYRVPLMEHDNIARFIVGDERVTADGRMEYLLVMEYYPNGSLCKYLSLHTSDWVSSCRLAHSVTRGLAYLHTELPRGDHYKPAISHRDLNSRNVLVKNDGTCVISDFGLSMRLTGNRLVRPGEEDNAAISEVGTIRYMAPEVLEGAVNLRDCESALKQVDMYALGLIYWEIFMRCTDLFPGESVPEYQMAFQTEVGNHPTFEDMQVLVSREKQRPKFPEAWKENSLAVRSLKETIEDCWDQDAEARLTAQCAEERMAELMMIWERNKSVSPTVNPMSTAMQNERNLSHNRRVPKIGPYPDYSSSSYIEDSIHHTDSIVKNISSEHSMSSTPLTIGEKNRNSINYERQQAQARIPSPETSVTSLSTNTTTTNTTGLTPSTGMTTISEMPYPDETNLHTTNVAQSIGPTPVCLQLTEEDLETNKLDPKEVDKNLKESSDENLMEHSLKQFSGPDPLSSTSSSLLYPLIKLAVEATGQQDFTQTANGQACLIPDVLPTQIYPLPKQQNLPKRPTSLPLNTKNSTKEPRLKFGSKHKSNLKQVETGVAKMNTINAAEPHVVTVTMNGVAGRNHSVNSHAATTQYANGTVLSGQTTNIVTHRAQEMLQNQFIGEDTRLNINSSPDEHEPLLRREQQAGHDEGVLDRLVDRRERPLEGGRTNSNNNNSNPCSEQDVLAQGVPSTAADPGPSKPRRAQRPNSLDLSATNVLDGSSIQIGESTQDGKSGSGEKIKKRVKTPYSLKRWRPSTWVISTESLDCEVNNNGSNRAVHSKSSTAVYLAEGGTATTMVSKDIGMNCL
PROTOCOL SUMMARY: KINOMEscan competition binding
RUN PARAMETERS: compound 10.0 µM
In this section, each of the compounds is paired with its reported kinase still bound, per cent of control.
Give the value; after it, write the unit.

The following compounds have reported results that may help.
INSERT INTO assay_data (smiles_code, measurement) VALUES
  ('CCCS(=O)(=O)Nc1ccc(F)c(C(=O)c2c[nH]c3ncc(-c4ccc(Cl)cc4)cc23)c1F', '57%'),
  ('Cn1c(=O)n(-c2ccc(C(C)(C)C#N)cc2)c2c3cc(-c4cnc5ccccc5c4)ccc3ncc21', '100%'),
  ('Cc1cc([C@@H](C)Nc2ccccc2C(=O)O)c2nc(N3CCOCC3)cc(=O)n2c1', '85%'),
  ('Cc1ccc(C(=O)Nc2cccc(C(F)(F)F)c2)cc1Nc1cncc(C(N)=O)c1', '100%');

Let us move to another entry and its kinase still bound, per cent of control.
Q: What value of kinase still bound, per cent of control has been recorded for this entry: CCN1CCN(Cc2ccc(Nc3ncc4c(n3)N(C)c3ccccc3C(=O)N4C)cc2C(F)(F)F)CC1
A: 91%

###

TARGET OR SYSTEM: NEK1 (human) (UniProt Q96PY6)
Sequence (Q96PY6 whole entry, looked up): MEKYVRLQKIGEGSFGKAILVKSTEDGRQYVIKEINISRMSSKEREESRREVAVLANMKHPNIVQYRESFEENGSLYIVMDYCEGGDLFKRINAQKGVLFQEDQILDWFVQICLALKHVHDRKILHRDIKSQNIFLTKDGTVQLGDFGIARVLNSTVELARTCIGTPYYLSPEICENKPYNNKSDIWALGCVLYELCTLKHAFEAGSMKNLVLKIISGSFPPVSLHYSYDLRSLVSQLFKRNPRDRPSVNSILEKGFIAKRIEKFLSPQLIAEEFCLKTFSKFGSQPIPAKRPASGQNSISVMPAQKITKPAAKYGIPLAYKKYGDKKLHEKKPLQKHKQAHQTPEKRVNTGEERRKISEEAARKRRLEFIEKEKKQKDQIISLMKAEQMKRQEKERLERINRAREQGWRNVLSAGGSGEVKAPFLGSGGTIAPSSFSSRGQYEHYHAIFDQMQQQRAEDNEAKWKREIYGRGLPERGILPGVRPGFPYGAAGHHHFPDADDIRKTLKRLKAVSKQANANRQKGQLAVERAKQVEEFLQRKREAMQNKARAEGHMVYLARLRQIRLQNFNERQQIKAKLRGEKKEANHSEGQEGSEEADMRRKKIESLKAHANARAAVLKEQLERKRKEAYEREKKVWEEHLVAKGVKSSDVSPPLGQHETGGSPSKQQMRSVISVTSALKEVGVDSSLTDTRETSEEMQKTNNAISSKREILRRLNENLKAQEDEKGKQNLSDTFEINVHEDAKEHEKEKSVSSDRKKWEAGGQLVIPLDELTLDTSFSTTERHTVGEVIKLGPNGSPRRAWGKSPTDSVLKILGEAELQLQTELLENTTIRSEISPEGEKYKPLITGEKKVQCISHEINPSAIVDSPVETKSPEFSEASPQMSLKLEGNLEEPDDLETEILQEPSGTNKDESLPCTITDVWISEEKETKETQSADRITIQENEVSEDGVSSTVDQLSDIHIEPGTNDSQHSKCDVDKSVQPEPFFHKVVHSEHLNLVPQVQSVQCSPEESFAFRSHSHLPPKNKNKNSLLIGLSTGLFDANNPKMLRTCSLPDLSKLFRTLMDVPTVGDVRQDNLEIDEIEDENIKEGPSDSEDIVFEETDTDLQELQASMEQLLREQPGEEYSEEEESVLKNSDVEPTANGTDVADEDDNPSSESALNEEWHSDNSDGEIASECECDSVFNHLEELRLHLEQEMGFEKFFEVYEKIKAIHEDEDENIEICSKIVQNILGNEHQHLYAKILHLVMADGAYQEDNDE
PROTOCOL SUMMARY: KINOMEscan competition binding
RUN PARAMETERS: compound 10.0 µM
METRIC NAME: kinase still bound, per cent of control (%)
Number in %, nothing else.

INSERT INTO results (smiles_code, measurement) VALUES
  ('CCOc1cc2ncc(C#N)c(Nc3ccc(OCc4ccccn4)c(Cl)c3)c2cc1NC(=O)/C=C/CN(C)C', 70),
  ('CCN1CCN(Cc2ccc(Nc3ncc4c(n3)N(C)c3ccccc3C(=O)N4C)cc2C(F)(F)F)CC1', 66),
  ('O=C1Nc2ccc(I)cc2/C1=C/c1cc(Br)c(O)c(Br)c1', 87);

Q: Find kinase still bound, per cent of control (NEK1 (human) (UniProt Q96PY6)) for the entry OCCCNc1cc(-c2ccnc(Nc3cccc(Cl)c3)n2)ccn1
A: 100

Q: Find kinase still bound, per cent of control (NEK1 (human) (UniProt Q96PY6)) for the entry Cc1ccc2nc(NCCN)c3ncc(C)n3c2c1
A: 78

Q: Find kinase still bound, per cent of control (NEK1 (human) (UniProt Q96PY6)) for the entry C=CC(=O)Nc1cccc(Nc2nc(N[C@H]3CC[C@H](N(C)C)CC3)nc3c2ncn3C(C)C)c1
A: 100

Q: Find kinase still bound, per cent of control (NEK1 (human) (UniProt Q96PY6)) for the entry O=C(O)c1ccc(Nc2ncc3c(n2)-c2ccc(Cl)cc2C(c2c(F)cccc2F)=NC3)cc1
A: 56

Q: Find kinase still bound, per cent of control (NEK1 (human) (UniProt Q96PY6)) for the entry CC[C@@H]1C(=O)N(C)c2cnc(Nc3ccc(C(=O)NC4CCN(C)CC4)cc3OC)nc2N1C1CCCC1
A: 100

Q: Find kinase still bound, per cent of control (NEK1 (human) (UniProt Q96PY6)) for the entry O=C(NOC[C@H](O)CO)c1ccc(F)c(F)c1Nc1ccc(I)cc1F
A: 98

Q: Find kinase still bound, per cent of control (NEK1 (human) (UniProt Q96PY6)) for the entry CN(C)C/C=C/C(=O)Nc1cccc(Nc2ncc3c(n2)N(C)c2ccccc2C(=O)N3C)c1
A: 69

###

TARGET OR SYSTEM: MERTK (human) (UniProt Q12866)
Sequence (Q12866 whole entry, looked up): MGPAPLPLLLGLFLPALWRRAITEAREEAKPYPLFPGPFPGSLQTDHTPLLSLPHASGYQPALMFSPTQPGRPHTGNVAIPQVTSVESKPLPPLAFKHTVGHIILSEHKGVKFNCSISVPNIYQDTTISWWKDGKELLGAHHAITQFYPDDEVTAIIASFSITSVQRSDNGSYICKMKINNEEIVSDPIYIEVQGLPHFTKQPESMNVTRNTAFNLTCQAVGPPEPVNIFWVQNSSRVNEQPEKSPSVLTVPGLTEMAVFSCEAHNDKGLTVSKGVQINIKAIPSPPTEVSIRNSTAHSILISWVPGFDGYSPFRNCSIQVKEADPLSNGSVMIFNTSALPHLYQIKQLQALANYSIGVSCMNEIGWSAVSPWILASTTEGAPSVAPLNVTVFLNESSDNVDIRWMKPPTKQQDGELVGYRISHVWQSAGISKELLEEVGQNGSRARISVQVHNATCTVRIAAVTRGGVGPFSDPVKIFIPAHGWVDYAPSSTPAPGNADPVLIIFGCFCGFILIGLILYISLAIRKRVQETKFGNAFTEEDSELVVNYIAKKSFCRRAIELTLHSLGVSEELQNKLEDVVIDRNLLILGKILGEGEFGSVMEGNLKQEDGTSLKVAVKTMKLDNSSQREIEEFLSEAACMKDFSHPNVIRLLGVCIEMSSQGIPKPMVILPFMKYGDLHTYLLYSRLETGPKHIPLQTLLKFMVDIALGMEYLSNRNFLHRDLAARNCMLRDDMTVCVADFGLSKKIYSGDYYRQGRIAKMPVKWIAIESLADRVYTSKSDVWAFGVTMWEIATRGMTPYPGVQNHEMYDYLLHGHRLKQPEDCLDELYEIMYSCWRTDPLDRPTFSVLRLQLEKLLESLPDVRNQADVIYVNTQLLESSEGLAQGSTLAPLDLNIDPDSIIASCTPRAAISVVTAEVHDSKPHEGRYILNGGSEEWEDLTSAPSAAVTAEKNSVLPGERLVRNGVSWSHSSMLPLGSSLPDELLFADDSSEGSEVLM
PROTOCOL SUMMARY: KINOMEscan competition binding
RUN PARAMETERS: compound 10.0 µM
Lab note: cut-off is 90%. Strictly less in kinase still bound, per cent of control is 1.0. Exactly 90% or more is 0.0.

// known answers, use as guide
INSERT INTO measurements (compound, assigned_label) VALUES
  ('C[C@@H](Oc1cc(-n2cnc3ccc(CN4CCN(C)CC4)cc32)sc1C(N)=O)c1ccccc1C(F)(F)F', 1.0),
  ('O=C(NOC[C@H](O)CO)c1ccc(F)c(F)c1Nc1ccc(I)cc1F', 0.0);

Q: Threshold test, kinase still bound, per cent of control < 90%: COc1cc(N2CCN(C)CC2)ccc1Nc1nc(N)c(C(=O)c2c(Cl)cccc2Cl)s1
A: 1.0

Q: Threshold test, kinase still bound, per cent of control < 90%: N#Cc1c(NC(=O)c2cccc3ccccc23)sc2c1CCCC2
A: 0.0

Q: Threshold test, kinase still bound, per cent of control < 90%: CCCS(=O)(=O)Nc1ccc(F)c(C(=O)c2c[nH]c3ncc(-c4ccc(Cl)cc4)cc23)c1F
A: 1.0

Q: Threshold test, kinase still bound, per cent of control < 90%: C=CC(=O)Nc1cccc(Oc2nc(Nc3ccc(N4CCN(C)CC4)cc3OC)ncc2Cl)c1
A: 0.0

Q: Threshold test, kinase still bound, per cent of control < 90%: Cc1cc([C@@H](C)Nc2ccccc2C(=O)O)c2nc(N3CCOCC3)cc(=O)n2c1
A: 0.0

Q: Threshold test, kinase still bound, per cent of control < 90%: Cc1ccc2nc(NCCN)c3ncc(C)n3c2c1
A: 0.0

Q: Threshold test, kinase still bound, per cent of control < 90%: Cc1ccc(C(=O)Nc2cccc(C(F)(F)F)c2)cc1Nc1cncc(C(N)=O)c1
A: 0.0

Q: Threshold test, kinase still bound, per cent of control < 90%: COc1cc(C(=O)NC2CCN(C)CC2)ccc1Nc1ncc2c(n1)N(C1CCCC1)C(C)CC(=O)N2C (centres undefined)
A: 0.0

Q: Threshold test, kinase still bound, per cent of control < 90%: CCC(=O)N1CCN(c2ccc(-n3c(=O)ccc4cnc5ccc(-c6cnc7ccccc7c6)cc5c43)cc2C(F)(F)F)CC1
A: 1.0

Q: Threshold test, kinase still bound, per cent of control < 90%: CN(C)C/C=C/C(=O)Nc1cccc(Nc2ncc3c(n2)N(C)c2ccccc2C(=O)N3C)c1
A: 1.0

Q: Threshold test, kinase still bound, per cent of control < 90%: C=CC(=O)Nc1cc(NC(=O)c2ccc(C)c(NC(=O)c3ccno3)c2)cc(C(F)(F)F)c1
A: 0.0
